Target: PARP1 enzyme (Homo sapiens (Human), UniProt P09874)
Sequence (P09874 whole entry): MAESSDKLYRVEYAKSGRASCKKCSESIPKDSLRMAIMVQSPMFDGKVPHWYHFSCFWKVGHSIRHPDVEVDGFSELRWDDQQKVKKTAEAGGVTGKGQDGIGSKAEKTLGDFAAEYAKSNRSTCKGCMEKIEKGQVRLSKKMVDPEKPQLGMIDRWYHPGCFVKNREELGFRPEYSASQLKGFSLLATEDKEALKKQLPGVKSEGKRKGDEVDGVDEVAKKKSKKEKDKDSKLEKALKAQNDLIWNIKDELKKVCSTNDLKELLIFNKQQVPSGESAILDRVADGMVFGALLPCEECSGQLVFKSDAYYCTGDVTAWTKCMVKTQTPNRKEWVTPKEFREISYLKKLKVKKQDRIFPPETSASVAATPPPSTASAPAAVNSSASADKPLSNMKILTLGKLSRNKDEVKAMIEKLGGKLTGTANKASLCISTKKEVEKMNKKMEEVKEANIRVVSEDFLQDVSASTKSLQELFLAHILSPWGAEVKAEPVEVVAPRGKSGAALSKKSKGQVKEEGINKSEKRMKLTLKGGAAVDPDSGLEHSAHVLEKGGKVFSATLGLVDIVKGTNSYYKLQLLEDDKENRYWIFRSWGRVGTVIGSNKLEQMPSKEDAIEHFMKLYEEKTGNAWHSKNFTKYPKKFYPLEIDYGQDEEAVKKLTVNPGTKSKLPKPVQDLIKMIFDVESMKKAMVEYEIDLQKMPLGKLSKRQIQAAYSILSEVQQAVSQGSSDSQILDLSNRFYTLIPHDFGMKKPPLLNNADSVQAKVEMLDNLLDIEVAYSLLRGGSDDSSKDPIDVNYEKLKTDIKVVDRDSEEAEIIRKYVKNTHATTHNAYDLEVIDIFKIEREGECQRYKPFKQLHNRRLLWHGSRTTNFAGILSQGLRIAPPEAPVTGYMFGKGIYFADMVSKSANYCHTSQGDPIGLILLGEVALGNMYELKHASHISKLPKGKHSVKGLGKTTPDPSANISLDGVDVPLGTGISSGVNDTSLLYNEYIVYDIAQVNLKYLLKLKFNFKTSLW
Assay: PARP1 enzyme activity test (chemiluminescence kit, BPS Bioscience)
Assay type: biochemical
Conditions: read-out: PARP-1 enzyme activity IC50
A collection of molecules and their measured IC50

> print(dat)
                                   molecule  parameter.measured   result
1  COc1cc2ncc(CN3CCN(c4ccc(C(=O)NC5CN(c6ccccc6)C5)nc4)CC3)cc2[nH]c1=O                IC50  0.56 nM
2  CCc1cc2ncc(CN3CCN(c4ccc(NC(=O)[C@H]5C[C@H]5F)nc4)CC3)cc2[nH]c1=O                IC50  0.66 nM
3  CCc1cc2ncc(CN3CCN(c4ccc(NC(=O)[C@@H]5C[C@H]5F)nc4)CC3)cc2[nH]c1=O                IC50  0.97 nM

Which value of IC50 has been reported for CCC1=CC2N=CC(CN3CCN(c4ccc(C(=O)C[C@@H]5C[C@@H]5F)nc4)CC3)=CC2CC1=O (stereo partly shown) in the records?
0.54 nM
